Test system: HBV
Procedure details: Anti-HBV activity, HepG2.117 cell line (Tet-off), intracellular HBV DNA by realtime PCR
Assay type: cell-based, Hepatitis B virus
Condition parameters: Hepatitis B virus, HepG2.117, 72 h, HepG2.117 cells, 3 days of treatment
Response field class: enum, chosen by comparing EC50 against range A: < 100 nM; range B: ≥ 100 nM and < 300 nM; range C: ≥ 300 nM

Cc1cc(NC(=O)c2cc(S(=O)(=O)NC(C)(C)C(N)=O)sc2C)ccc1F [Compound 33]; range B

Textbook exercise: identify the category of the molecule given here, Cc1sc(S(=O)(=O)NC2(C(F)(F)F)CCOC2)cc1C(=O)Nc1cccc(C(F)(F)F)c1 (racemic) [Compound 41] , according to its measured value.
range C

Textbook exercise: identify the category of the molecule given here, Cc1sc(S(=O)(=O)NC2(C(F)(F)F)CCOC2)cc1C(=O)Nc1ccc(F)c(F)c1 (centres unmarked) [Compound 49] , according to its measured value.
range B

Textbook exercise: identify the category of the molecule given here, Cc1cc(NC(=O)c2cc(S(=O)(=O)N[C@H]3CCOC3)sc2Cl)ccc1F [Compound 4] , according to its measured value.
range C

###

Each entry below carries its recorded CC50 at 4 days.
Procedure details: Cytotoxicity in HepG2 cells, Resazurin assay
Assay type: cell-based
Condition parameters: human, incubated for 4 days, Resazurin viability

Examples with their reported CC50 at 4 days follow.
Cc1sc(S(=O)(=O)N[C@H](C)C(C)(F)F)cc1C(=O)Nc1ccc(F)c(F)c1; 14.6 µM
Cc1sc(S(=O)(=O)NC(C)(C)C)cc1C(=O)Nc1ccc(F)c(C#N)c1; > 25 µM
COC(=O)C(C)(C)NS(=O)(=O)c1cc(C(=O)Nc2ccc(F)c(F)c2)c(C)s1; > 25 µM
Cc1sc(S(=O)(=O)NC(CF)CF)cc1C(=O)Nc1ccc(F)c(F)c1; > 25 µM
Cc1sc(S(=O)(=O)NC2(C(F)(F)F)CCOC2)cc1C(=O)Nc1ccc(F)c(C#N)c1 (racemic); > 25 µM
Cc1cc(NC(=O)c2cc(S(=O)(=O)NC3(C)CCOC3)sc2C)ccc1F (racemic); > 25 µM

Record summary for Cc1sc(S(=O)(=O)N[C@H](C)C(F)(F)F)cc1C(=O)Nc1ccc(F)c(C#N)c1 : reported CC50 at 4 days = > 25 µM

Record summary for Cc1cc(NC(=O)c2cc(S(=O)(=O)NC(C)(C)C)sc2C)ccc1F : reported CC50 at 4 days = > 25 µM

Record summary for Cc1cc(NC(=O)c2cc(S(=O)(=O)N[C@H]3CCOC3)cs2)ccc1F : reported CC50 at 4 days = > 25 µM

Record summary for Cc1cc(NC(=O)c2cc(S(=O)(=O)NC3(C)COC3)sc2C)cc(C#N)c1F : reported CC50 at 4 days = > 25 µM

Record summary for Cc1cc(NC(=O)c2cc(S(=O)(=O)N[C@H]3CCOC3)sc2C(F)(F)F)ccc1F : reported CC50 at 4 days = > 25 µM

Record summary for Cc1cc(NC(=O)c2cc(S(=O)(=O)N[C@H]3CCOC3)sc2C)ccc1F : reported CC50 at 4 days = > 25 µM

Record summary for Cc1sc(S(=O)(=O)NC(C)(C)C)cc1C(=O)Nc1ccc(F)c(Br)c1 : reported CC50 at 4 days = 12.2 µM

Record summary for Cc1sc(S(=O)(=O)NC(CF)CF)cc1C(=O)Nc1ccc(F)c(C#N)c1 : reported CC50 at 4 days = > 25 µM

Record summary for Cc1sc(S(=O)(=O)NC2(C(F)(F)F)CC2)cc1C(=O)Nc1ccc(F)c(C#N)c1 : reported CC50 at 4 days = 13.7 µM

Record summary for CCc1sc(S(=O)(=O)N[C@H]2CCOC2)cc1C(=O)Nc1ccc(F)c(C)c1 : reported CC50 at 4 days = > 25 µM

Record summary for Cc1cc(NC(=O)c2cc(S(=O)(=O)N[C@H](C)CO)sc2Cl)ccc1F : reported CC50 at 4 days = > 25 µM
